# TEST: Plasma protein binding in human
# Type: ADME, cell-free
# ASSAY_SETUP: read-out: PPB
PROPERTY: fraction unbound

INSERT INTO results (given_smiles, property, result) VALUES
  ('C[C@@H]1Cc2cc(C(N)=O)cnc2N1', 'fraction unbound', '> 0.62');

FYI, the data here is from ChEMBL document CHEMBL5214992.
